target_of_assay: RPS10 (Homo sapiens, UniProt P46783)
Construct: made in house; host or cells: E. coli BL-21
Type: binding
experimental_context: 1Ai conc. 32 uM
Response field label takes Fulfilled when RPS10 fluorescence ratio to control is strictly below 0.7 and Not fulfilled in all other cases.

1. O=C(COc1ccccc1[N+](=O)[O-])NCc1ccc(-c2ccc(Br)cc2)o1 [1Ai-4700] | Fulfilled

Task: RPS10 fluorescence ratio to control strictly < 0.7 for this molecule? CCOc1cc(C(=O)Nc2ccc(Cl)c(-c3nc4ccccc4[nH]3)c2)cc(OCC)c1OCC [1Ai-5677]
Output: Not fulfilled

Task: Also need COc1ccc2oc(C(=O)OC(C)C(=O)Nc3sccc3C(N)=O)c(C)c2c1 (centres unmarked) [1Ai-3044] , thanks.
Output: Not fulfilled

Task: Also need CN1CCN(S(=O)(=O)c2ccc(N3Cc4cc5c(cc4C4(CCCC4)C3)OCCO5)nc2)CC1 [1Ai-3564] , thanks.
Output: Not fulfilled

Task: Also need C=CCNC(=O)CN1CCN(Cc2nc3cc(-c4ccc(Cl)cc4)sc3c(=O)[nH]2)CC1 [1Ai-1524] , thanks.
Output: Fulfilled

Task: Also need O=C(C=Cc1ccc(Cl)s1)Nc1cccc2ncccc12 [1Ai-4860] , thanks.
Output: Not fulfilled

* * *

Recorded below: GFP reporter ratio nsp1/gfp, avg, system NSP1 (Severe acute respiratory syndrome coronavirus 2, UniProt P0DTD1).
Give only the figure.

1) O=C(C=Cc1ccc(Cl)s1)Nc1cccc2ncccc12 | 0.4044
2) CN1CCN(S(=O)(=O)c2ccc(N3Cc4cc5c(cc4C4(CCCC4)C3)OCCO5)nc2)CC1 | 0.5007
3) O=C(CSc1nc(-c2ccccc2)cn1-c1ccccc1)NC(=O)Nc1ccccc1 | 0.4187
4) O=C(COc1ccccc1[N+](=O)[O-])NCc1ccc(-c2ccc(Br)cc2)o1 | 0.4331
5) COc1ccc2oc(C(=O)OC(C)C(=O)Nc3sccc3C(N)=O)c(C)c2c1 (stereo not shown) | 0.4548

Task: Given the compound Cn1c(=O)c2ccccc2n2c(CNC(c3ccc4c(c3)CCC4)c3cccs3)nnc12 (stereo not shown) , what is its reported GFP reporter ratio nsp1/gfp, avg?
Output: 0.4413

Task: Also need CCOc1cc(C(=O)Nc2ccc(Cl)c(-c3nc4ccccc4[nH]3)c2)cc(OCC)c1OCC , thanks.
Output: 0.572

* * *

Recorded below: GFP reporter ratio nsp1/gfp, rep 1, system NSP1 (Severe acute respiratory syndrome coronavirus 2, UniProt P0DTD1).
Give only the figure.

Task: Given the compound O=c1cc(CN2CCOCC2)occ1OCCCCCSc1ccnc2cc(C(F)(F)F)ccc12 [1Ai-5730] , what is its reported GFP reporter ratio nsp1/gfp, rep 1?
Output: 0.524

* * *

target_of_assay: eIF1A (Homo sapiens, UniProt P47813)
Construct: His-bdSUMO (cleaved yes); made in house; host or cells: E. coli BL-21
Sequence (P47813 whole entry): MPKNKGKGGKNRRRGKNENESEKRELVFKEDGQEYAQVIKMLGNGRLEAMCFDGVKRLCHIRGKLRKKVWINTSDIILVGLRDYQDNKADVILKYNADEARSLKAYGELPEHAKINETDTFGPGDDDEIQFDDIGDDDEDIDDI
Format: binding
experimental_context: eIF1A; from the titration data; read-out: IC50 (eIF1A titration block)
measured_quantity: log10(IC50) (log10 of the value in µM)
Parameter value (number): base-10 log of IC50 in µM.

Below are worked cases with known answers.
1) COc1cccc(Nc2nc(-c3ccc(NC(C)=O)cc3)c(C)s2)c1 [1Ai-1869] | 1.31
2) Cc1ccc(C(=O)c2cc(O)c(O)c([N+](=O)[O-])c2)cc1 [1Ai-5576] | -0.03
3) COc1ccc(C=C2CSc3ccc(Cl)cc3C2=O)cc1O [1Ai-5175] | 0.78
4) O=C(COc1ccccc1[N+](=O)[O-])NCc1ccc(-c2ccc(Br)cc2)o1 [1Ai-4700] | 1.32

API: the following record is the query input.
Task: Given the compound Cc1cc(-n2c(C)cc(-c3csc(N)n3)c2C)no1 [1Ai-6464] , what is its reported log10(IC50)?
Output: 1.33
